Hey, just so you know, these numbers are from paper PMC8064475.

molecular target: mushroom tyrosinase; experiment: Mushroom tyrosinase inhibition assay; conditions: tyrosine substrate; ammonium formate buffer pH 6.4; 37 °C; dopachrome at 420 nm
# IC50 values compiled below
Measurement Name: IC50 (mM)

[
  {
    "Molecule": "COc1cc(C(=O)CCc2cc(OC)c(O)c(OC)c2)ccc1O [b11]",
    "Measurement Name": "IC50",
    "Sign": ">",
    "Meas Value": 10
  },
  {
    "Molecule": "COc1cc(C(=O)CCc2ccc(O)c(O)c2)ccc1O [b7]",
    "Measurement Name": "IC50",
    "Sign": ">",
    "Meas Value": 10
  },
  {
    "Molecule": "O=C(CCc1ccc(O)cc1)c1ccc(O)c(O)c1 [b3, 3′,4,4′-trihydroxy-dihydrochalcone]",
    "Measurement Name": "IC50",
    "Sign": ">",
    "Meas Value": 10
  },
  {
    "Molecule": "COc1cc(CCC(=O)c2ccc(O)c(OC)c2)ccc1O [b10]",
    "Measurement Name": "IC50",
    "Sign": "=",
    "Meas Value": 0.27
  },
  {
    "Molecule": "COc1cc(/C=C/C(=O)c2cc(OC)c(O)c(OC)c2)cc(OC)c1O [a12]",
    "Measurement Name": "IC50",
    "Sign": ">",
    "Meas Value": 10
  },
  {
    "Molecule": "O=C(/C=C/c1ccc(O)cc1)c1ccc(O)c(O)c1 [a3, 3′,4,4′-trihydroxy-chalcone]",
    "Measurement Name": "IC50",
    "Sign": ">",
    "Meas Value": 10
  },
  {
    "Molecule": "COc1cc(C(=O)/C=C/c2ccc(O)cc2)cc(OC)c1O [a9, 4,4′-dihydroxy-3′,5′-dimethoxy-chalcone]",
    "Measurement Name": "IC50",
    "Sign": "=",
    "Meas Value": 0.13
  },
  {
    "Molecule": "COc1cc(C(=O)CCc2ccc(O)cc2)ccc1O [b6]",
    "Measurement Name": "IC50",
    "Sign": ">",
    "Meas Value": 10
  },
  {
    "Molecule": "COc1cc(/C=C/C(=O)c2ccc(O)cc2)ccc1O [a5, 4,4′-dihydroxy-3-methoxy-chalcone]",
    "Measurement Name": "IC50",
    "Sign": "=",
    "Meas Value": 2.3
  },
  {
    "Molecule": "COc1cc(/C=C/C(=O)c2ccc(O)c(OC)c2)ccc1O [a10, 4,4′-dihydroxy-3,3′-dimethoxy-chalcone]",
    "Measurement Name": "IC50",
    "Sign": "=",
    "Meas Value": 1.8
  },
  {
    "Molecule": "O=C(CCc1ccc(O)cc1)c1ccc(O)cc1 [b1, 4,4′-dihydroxy-dihydrochalcone]",
    "Measurement Name": "IC50",
    "Sign": ">",
    "Meas Value": 10
  },
  {
    "Molecule": "COc1cc(C(=O)/C=C/c2ccc(O)cc2)ccc1O [a6, 4,4′-dihydroxy-3′-methoxy-chalcone]",
    "Measurement Name": "IC50",
    "Sign": "=",
    "Meas Value": 0.14
  },
  {
    "Molecule": "COc1cc(CCC(=O)c2ccc(O)c(O)c2)ccc1O [b8]",
    "Measurement Name": "IC50",
    "Sign": "=",
    "Meas Value": 0.07
  }
]

---

Catalogue of pEC50 values
experiment: DPPH radical scavenging assay; format: biochemical; settings: in ethanol; DPPH 200 µM; read at 520 nm over 7.5 h; read-out: EC50 for DPPH inhibition
pEC50: −log10 of the molar value.

[
  {
    "Compound": "COc1cc(/C=C/C(=O)c2ccc(O)c(OC)c2)ccc1O [a10, 4,4′-dihydroxy-3,3′-dimethoxy-chalcone]",
    "Sign": "=",
    "pEC50": 4.36
  },
  {
    "Compound": "COc1cc(C(=O)/C=C/c2ccc(O)cc2)ccc1O [a6, 4,4′-dihydroxy-3′-methoxy-chalcone]",
    "Sign": "<",
    "pEC50": 4.10
  },
  {
    "Compound": "O=C(/C=C/c1ccc(O)c(O)c1)c1ccc(O)cc1 [a2, 3,4,4′-trihydroxy-chalcone]",
    "Sign": "=",
    "pEC50": 4.50
  },
  {
    "Compound": "O=C(/C=C/c1ccc(O)cc1)c1ccc(O)c(O)c1 [a3, 3′,4,4′-trihydroxy-chalcone]",
    "Sign": "=",
    "pEC50": 4.81
  },
  {
    "Compound": "COc1ccc(O)c(C(C)(C)C)c1 [BHA, butylated hydroxyanisol, reference compound]",
    "Sign": "=",
    "pEC50": 4.73
  },
  {
    "Compound": "O=C(CCc1ccc(O)cc1)c1ccc(O)cc1 [b1, 4,4′-dihydroxy-dihydrochalcone]",
    "Sign": "<",
    "pEC50": 4.10
  },
  {
    "Compound": "O=C(CCc1ccc(O)c(O)c1)c1ccc(O)c(O)c1 [b4, 3,3′,4,4′-tetrahydroxy-dihydrochalcone]",
    "Sign": "=",
    "pEC50": 4.82
  },
  {
    "Compound": "COc1cc(CCC(=O)c2ccc(O)cc2)ccc1O [b5, 4,4′-dihydroxy-3-methoxy-dihydrochalcone]",
    "Sign": "=",
    "pEC50": 4.55
  }
]

---

experiment: UV-Vis spectra at 10 µM in ethanol; format: physicochemical; conditions: 1 cm quartz cuvette, band I
Criterion: Maximal absorbance meeting or surpassing 0.2. Met: 1. Not met: 0.

[
  {
    "Molecule": "O=C(CCc1ccc(O)c(O)c1)c1ccc(O)cc1 [b2, 3,4,4′-trihydroxy-dihydrochalcone]",
    "Label Class": 1
  },
  {
    "Molecule": "O=C(/C=C/c1ccc(O)c(O)c1)c1ccc(O)c(O)c1 [a4, 3,3′,4,4′-tetrahydroxy-chalcone]",
    "Label Class": 1
  },
  {
    "Molecule": "O=C(CCc1ccc(O)cc1)c1c(O)cc(O)cc1O",
    "Label Class": 1
  },
  {
    "Molecule": "COc1cc(CCC(=O)c2ccc(O)c(OC)c2)ccc1O",
    "Label Class": 0
  },
  {
    "Molecule": "COc1cc(C(=O)CCc2ccc(O)cc2)cc(OC)c1O",
    "Label Class": 0
  },
  {
    "Molecule": "COc1cc(C(=O)/C=C/c2cc(OC)c(O)c(OC)c2)ccc1O",
    "Label Class": 1
  },
  {
    "Molecule": "O=C(CCc1ccc(O)cc1)c1ccc(O)cc1 [b1, 4,4′-dihydroxy-dihydrochalcone]",
    "Label Class": 1
  },
  {
    "Molecule": "O=C(/C=C/c1ccc(O)cc1)c1ccc(O)cc1 [a1, 4,4′-dihydroxy-chalcone]",
    "Label Class": 1
  },
  {
    "Molecule": "CCCCC(CC)COC(=O)C=Cc1ccc(OC)cc1 (stereo not shown) [Octinoxate, octinoxate, reference compound]",
    "Label Class": 1
  },
  {
    "Molecule": "COc1ccc(C(=O)CC(=O)c2ccc(C(C)(C)C)cc2)cc1 [Avobenzone, avobenzone, reference compound]",
    "Label Class": 1
  }
]

---

biological target: mushroom tyrosinase; experiment: Mushroom tyrosinase inhibition assay; assay type: biochemical; details: tyrosine substrate; ammonium formate buffer pH 6.4; 37 °C; dopachrome at 420 nm
pIC50: −log10 of the molar value.

[
  {
    "Compound": "COc1cc(C(=O)CCc2ccc(O)cc2)cc(OC)c1O [b9]",
    "pIC50": "< 2.00"
  },
  {
    "Compound": "O=C(CCc1ccc(O)c(O)c1)c1ccc(O)c(O)c1 [b4, 3,3′,4,4′-tetrahydroxy-dihydrochalcone]",
    "pIC50": "< 2.00"
  },
  {
    "Compound": "COc1cc(CCC(=O)c2ccc(O)cc2)ccc1O [b5, 4,4′-dihydroxy-3-methoxy-dihydrochalcone]",
    "pIC50": 3.30
  },
  {
    "Compound": "COc1cc(CCC(=O)c2cc(OC)c(O)c(OC)c2)cc(OC)c1O [b12]",
    "pIC50": "< 2.00"
  },
  {
    "Compound": "COc1cc(C(=O)/C=C/c2cc(OC)c(O)c(OC)c2)ccc1O [a11]",
    "pIC50": 2.10
  },
  {
    "Compound": "O=C(CCc1ccc(O)c(O)c1)c1ccc(O)cc1 [b2, 3,4,4′-trihydroxy-dihydrochalcone]",
    "pIC50": "< 2.00"
  },
  {
    "Compound": "COc1cc(/C=C/C(=O)c2ccc(O)c(O)c2)ccc1O [a8, 3′,4,4′-trihydroxy-3-methoxy-chalcone]",
    "pIC50": "< 2.00"
  },
  {
    "Compound": "O=C(CCc1ccc(O)cc1)c1c(O)cc(O)cc1O [Phloretin, phloretin]",
    "pIC50": "< 2.00"
  },
  {
    "Compound": "O=C(/C=C/c1ccc(O)cc1)c1ccc(O)cc1 [a1, 4,4′-dihydroxy-chalcone]",
    "pIC50": 4.00
  }
]
